Data origin, for the record: ChEMBL document CHEMBL1154987

experimentDescription: Half life in Sprague-Dawley rat at 2 mg/kg, iv
Format: ADME, organism-based
Design: dose 2 mg/kg, route intravenous
experimentalParameters: in vivo
parameterMeasured: half-life (h)
Write it as a number; the unit h goes unstated.

Quick note, half-life for "COc1ccc(Cc2cc([C@@H]3OC4(COC4)[C@@H](O)[C@H](O)[C@H]3O)ccc2C)cc1" landed at 1.2

Quick note, half-life for CCOc1ccc(Cc2cc([C@@H]3O[C@H](CO)[C@@H](O)[C@H](O)[C@H]3O)ccc2Cl)cc1 [DAPAGLIFLOZIN] landed at 4.4

----------
experimentDescription: Clearance in Sprague-Dawley rat at 1 mg/kg, iv
Type: ADME, organism-based
Parameters: dose 1 mg/kg, route intravenous
experimentalParameters: in vivo
parameterMeasured: clearance (mL/min/kg)
Write it as a number; the unit mL/min/kg goes unstated.

Quick note, clearance for "CCc1ccc(Cc2cc([C@@H]3OC4(CC4)[C@@H](O)[C@H](O)[C@H]3O)ccc2C)cc1" landed at 112

Quick note, clearance for "COc1ccc(Cc2cc([C@@H]3OC4(CC4)[C@@H](O)[C@H](O)[C@H]3O)ccc2C)cc1" landed at 48.9
